- system name: human URAT1 (Homo sapiens, UniProt Q96S37)
- Construct: Full-length cDNA of human URAT1 (hURAT1)
- experimental protocol: Test for inhibition of uric acid transport using human URAT1-expressing cells;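 further: three stars up to 0.2 µM two stars 0.2-2 µM one star 2-20 µM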
- Type: cell-based
- study conditions: HEK 293 cells expressing human URAT1; 14C-labeled uric acid 25 μM; uptake 37° C. for 5 min
recorded metric: Inhibitory Activity (IC50 of uric acid transport inhibition)

Use the examples below as a reference point.
Any idea what Inhibitory Activity (IC50 of uric acid transport inhibition) was measured for Cc1nc(-c2cccnc2)n(Cc2csc3cccc(Br)c23)c1C(=O)O ?
* *

Given O=C(O)c1ccc(-c2cccnc2)n1Cc1csc2ccccc12 , state its recorded Inhibitory Activity (IC50 of uric acid transport inhibition).
* * *

Form field: reported Inhibitory Activity (IC50 of uric acid transport inhibition) of O=C(O)/C=C/c1ccc(-c2cccnc2)n1Cc1cccc2ccccc12
* * *

What does the record list as Inhibitory Activity (IC50 of uric acid transport inhibition) for Cc1nc(-c2cncc(N3CCCC3)c2)n(Cc2cc(Cl)ccc2Cl)c1C(=O)O ?
* * *

For the molecule O=C(O)c1c(C2CC2)nc(-c2cncc(Cl)c2)n1Cc1cccc2ccsc12 , what Inhibitory Activity (IC50 of uric acid transport inhibition) is on record?
* * *

# lookup: Inhibitory Activity (IC50 of uric acid transport inhibition) of O=C(O)c1cnc(-c2cncc(Br)c2)n1Cc1cc(Cl)ccc1Cl
* * *

Please report Inhibitory Activity (IC50 of uric acid transport inhibition) for every entry that follows.
1. Cc1nc(-c2cncc(F)c2)n(Cc2cccc3ccccc23)c1C(=O)O
2. CS(=O)(=O)NC(=O)c1ccc(-c2cccnc2)n1Cc1cc(Cl)ccc1Cl
3. Cc1nc(-c2cncc(F)c2)n(Cc2sc(Cl)cc2Cl)c1C(=O)O
4. Cc1ccc(C)c(Cn2c(-c3cncc(F)c3)nc(C)c2C(=O)O)c1

["* *", "* * *", "* *", "* *"]

Please give Inhibitory Activity (IC50 of uric acid transport inhibition), item by item, for the list that follows.
1. O=C(NS(=O)(=O)C1CC1)c1ccc(-c2cncc(F)c2)n1Cc1cc(Cl)ccc1Cl
2. O=C(O)c1ccc(-c2cncc(Cl)c2)n1Cc1csc2cccc(Cl)c12
3. O=C(O)c1c(C2CC2)nc(-c2cccnc2)n1Cc1cccc2ccccc12
4. CC(C)c1nc(-c2cccnc2)n(Cc2csc3cccc(Br)c23)c1C(=O)O
5. CCC(O)(CC)c1nc(-c2cncc(Cl)c2)n(Cc2cc(Cl)ccc2Cl)c1C(=O)O

["* * *", "* * *", "* *", "* * *", "* * *"]

Look up Inhibitory Activity (IC50 of uric acid transport inhibition) for the entries below, preserving their order.
1. CC(C)c1nc(-c2cncc(F)c2)n(Cc2cc(Cl)ccc2Cl)c1C(=O)O
2. Cc1cncc(-c2ccc(C(=O)O)n2Cc2csc3cccc(Cl)c23)c1
3. Cc1nc(-c2cncc(OCc3ccccc3)c2)n(Cc2cc(Cl)ccc2Cl)c1C(=O)O
4. C#Cc1nc(-c2cncc(Cl)c2)n(Cc2cc(Cl)ccc2Cl)c1C(=O)O
5. CS(=O)(=O)NC(=O)c1ccc(-c2cncc(F)c2)n1Cc1cc(Cl)ccc1Cl

* * *
* * *
* *
* * *
* * *

For each entry beneath this line, provide reported Inhibitory Activity (IC50 of uric acid transport inhibition).
1. O=C(O)c1ccc(-c2cccnc2)n1Cc1csc2cccc(Cl)c12
2. O=C(NS(=O)(=O)C1CC1)c1c(C2CC2)nc(-c2cccnc2)n1Cc1cccc2ccsc12
3. Cc1cncc(-c2ncc(C(=O)O)n2Cc2cc(Cl)ccc2Cl)c1
4. Cc1nc(Oc2cccnc2Br)n(Cc2cc(Cl)ccc2Cl)c1C(=O)O
5. Cc1nc(-c2cccnc2)n(Cc2cccc3ccccc23)c1C(=O)O
6. Cc1nc(-c2cncc([N+](=O)[O-])c2)n(Cc2cc(Cl)ccc2Cl)c1C(=O)O
7. O=C(O)c1c(OCC(F)(F)F)nc(-c2cccnc2)n1Cc1cc(Cl)ccc1Cl
8. O=C(O)c1c(-c2cccc(F)c2)nc(-c2cccnc2)n1Cc1cc(Cl)ccc1Cl

1: * * *; 2: * *; 3: * * *; 4: * * *; 5: * *; 6: * * *; 7: * * *; 8: * * *

Parameter requested: Inhibitory Activity (IC50 of uric acid transport inhibition). Apply to each item below.
1. O=C(O)c1c(-c2cccnc2)nc(-c2cccnc2)n1Cc1cc(Cl)ccc1Cl
2. O=C(O)C1(Sc2cnc(-c3cncc(Cl)c3)n2Cc2cc(Cl)ccc2Cl)CCC1
3. O=C(O)c1c(C(F)(F)F)nc(-c2cccnc2)n1Cc1cccc2ccsc12
4. Cc1nc(-c2ccc(Cl)nc2)n(Cc2cc(Cl)ccc2Cl)c1C(=O)O
5. O=C(O)c1ccc(-c2cncc(F)c2)n1Cc1csc2cccc(Cl)c12
6. Cc1nc(-c2cncc(F)c2)n(Cc2csc3cccc(Cl)c23)c1C(=O)O

1: * *; 2: * *; 3: * *; 4: * *; 5: * * *; 6: * *

====

- system name: human URAT1 (Homo sapiens, UniProt Q96S37)
- Construct: Full-length cDNA of human URAT1 (hURAT1)
- Sequence (Q96S37 1-553): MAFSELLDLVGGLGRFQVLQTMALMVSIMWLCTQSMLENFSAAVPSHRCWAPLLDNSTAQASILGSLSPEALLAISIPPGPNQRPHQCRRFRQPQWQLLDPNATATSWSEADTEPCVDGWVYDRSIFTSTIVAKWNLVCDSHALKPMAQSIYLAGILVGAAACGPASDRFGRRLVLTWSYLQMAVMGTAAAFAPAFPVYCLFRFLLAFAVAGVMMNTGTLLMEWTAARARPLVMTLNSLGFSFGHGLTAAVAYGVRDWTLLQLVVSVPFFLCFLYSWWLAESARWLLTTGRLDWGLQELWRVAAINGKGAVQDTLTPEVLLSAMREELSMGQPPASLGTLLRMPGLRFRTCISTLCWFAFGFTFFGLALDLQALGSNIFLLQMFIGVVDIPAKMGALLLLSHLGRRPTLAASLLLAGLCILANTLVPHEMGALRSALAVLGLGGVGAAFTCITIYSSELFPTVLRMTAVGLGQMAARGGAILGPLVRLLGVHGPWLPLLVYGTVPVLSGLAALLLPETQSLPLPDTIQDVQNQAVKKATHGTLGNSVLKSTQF
- experimental protocol: Test for inhibition of uric acid transport using human URAT1-expressing cells;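 further: three stars up to 0.2 µM two stars 0.2-2 µM one star 2-20 µM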
- Format: cell-based
- study conditions: HEK 293 cells expressing human URAT1; 14C-labeled uric acid 25 μM; uptake 37° C. for 5 min
recorded metric: Inhibitory Activity (IC50 of uric acid transport inhibition)

Form entry - test system: human URAT1 (Homo sapiens, UniProt Q96S37); read-out: Inhibitory Activity (IC50 of uric acid transport inhibition); molecule: Cc1nc(-c2cncc(F)c2)n(Cc2csc3ccccc23)c1C(=O)O [Compound A133]
* *

What reported Inhibitory Activity (IC50 of uric acid transport inhibition) corresponds to CC(C)(Sc1cnc(-c2cncc(Cl)c2)n1Cc1cc(Cl)ccc1Cl)C(=O)O [Compound A262] on human URAT1 (Homo sapiens, UniProt Q96S37)?
* *

What Inhibitory Activity (IC50 of uric acid transport inhibition) appears in the records for this molecule with human URAT1 (Homo sapiens, UniProt Q96S37)? Cc1nc(-c2cnc3ccccc3c2)n(Cc2cc(Cl)ccc2Cl)c1C(=O)O [Compound A67]
* *

Lab note: need Inhibitory Activity (IC50 of uric acid transport inhibition) with human URAT1 (Homo sapiens, UniProt Q96S37) for entry CCOc1cncc(-c2nc(C)c(C(=O)O)n2Cc2cc(Cl)ccc2Cl)c1 [Compound A174] , please look it up.
* * *

====

- system name: human URAT1 (Homo sapiens, UniProt Q96S37)
- Construct: Full-length cDNA of human URAT1 (hURAT1)
- experimental protocol: Test for inhibition of uric acid transport using human URAT1-expressing cells;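 further: three stars up to 0.2 µM two stars 0.2-2 µM one star 2-20 µM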
- Format: cell-based
- study conditions: HEK 293 cells expressing human URAT1; 14C-labeled uric acid 25 μM; uptake 37° C. for 5 min
- Method: (1) Preparation of the Test Compound The test compound was dissolved in DMSO (produced by Sigma) to a concentration of 20 mM and was subsequently used by diluting to desired concentrations. (2) Test for Inhibition of Uric Acid Transport Using Human URAT1-Expressing Cells […]
recorded metric: Inhibitory Activity (IC50 of uric acid transport inhibition)

Examples with answers:
Any idea what its Inhibitory Activity (IC50 of uric acid transport inhibition) is? The compound is Cc1cncc(-c2nc(Cl)c(C(=O)O)n2Cc2cc(Cl)ccc2Cl)c1 [Compound A219]
* * *

Recorded Inhibitory Activity (IC50 of uric acid transport inhibition) for CCc1nc(-c2cccnc2)n(Cc2cccc3ccccc23)c1C(=O)O [Compound A10] , please?
* *

Given the entry O=C(O)c1c(C(F)(F)F)nc(-c2cccnc2)n1Cc1cc(Cl)ccc1Cl [Compound A19] , report its measured Inhibitory Activity (IC50 of uric acid transport inhibition).
* * *

What does the record list as Inhibitory Activity (IC50 of uric acid transport inhibition) for O=C(O)c1ccc(-c2cncc(Cl)c2)n1Cc1cccc2ccsc12 [Compound B23] ?
* * *

Record Inhibitory Activity (IC50 of uric acid transport inhibition) for all entries; do not skip any.
1. Cc1nc(-c2cccnc2)n(Cc2cc(Cl)ccc2Cl)c1C(=O)O [Compound A13]
2. O=C(O)c1c(Br)nc(-c2cccnc2)n1Cc1cc(Cl)ccc1Cl [Compound A89]
3. CCc1cncc(-c2nc(C)c(C(=O)O)n2Cc2cc(Cl)ccc2Cl)c1 [Compound A181]
4. O=C(O)c1c(Cn2cccn2)nc(-c2cncc(Cl)c2)n1Cc1cc(Cl)ccc1Cl [Compound A200]
5. COc1cccc(-c2nc(C)c(C(=O)O)n2Cc2cc(Cl)ccc2Cl)n1 [Compound A246]
6. CC(C)c1nc(-c2cccnc2)n(Cc2cccc3ccsc23)c1C(=O)O [Compound A83]
7. CC(O)c1nc(-c2cncc(Cl)c2)n(Cc2cc(Cl)ccc2Cl)c1C(=O)O (stereo not shown) [Compound A211]

1. * * *
2. * * *
3. * * *
4. * * *
5. * *
6. * *
7. * * *

Would you be so kind as to report Inhibitory Activity (IC50 of uric acid transport inhibition) for each listed record?
1. Cc1nc(-c2cccnc2)n(Cc2ccc(Cl)cc2Cl)c1C(=O)O [Compound A77]
2. Cc1nc(-c2cncc(Oc3ccccc3)c2)n(Cc2cccc3ccccc23)c1C(=O)O [Compound A130]
3. O=C(O)c1ccc(-c2cncc(Cl)c2)n1Cc1cc(Cl)ccc1Cl [Compound B17]

["* *", "* *", "* * *"]

// each listed compound needs a value for Inhibitory Activity (IC50 of uric acid transport inhibition)
1. Cc1ncccc1Oc1nc(C)c(C(=O)O)n1Cc1cc(Cl)ccc1Cl [Compound A252]
2. Cc1nc(-c2cccnc2)n(Cc2sc(Cl)cc2Cl)c1C(=O)O [Compound A80]
3. COc1cccc(-c2nc(C)c(C(=O)O)n2Cc2cccc3ccccc23)n1 [Compound A240]
4. O=C1OCc2nc(-c3cncc(Cl)c3)n(Cc3cc(Cl)ccc3Cl)c21 [Compound A221]
5. O=C(O)/C=C/c1ccc(-c2cncc(F)c2)n1Cc1cc(Cl)ccc1Cl [Compound B35]
6. Clc1cncc(-c2ncc(-c3nnn[nH]3)n2Cc2cc(Cl)ccc2Cl)c1 [Compound A237]
7. O=C(O)c1ccc(-c2cncc(F)c2)n1Cc1cc(Cl)ccc1Cl [Compound B14]

1: * * *; 2: * *; 3: * *; 4: * * *; 5: * * *; 6: * * *; 7: * * *
